Items are presented alongside their recorded self-cleavage.
B1: Hairpin Ribozyme (parent)
chain: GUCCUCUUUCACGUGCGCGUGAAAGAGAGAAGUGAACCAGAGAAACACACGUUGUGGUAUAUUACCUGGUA

# Variants of: B1
# assay notes: self-cleavage, relative activity (ratio to wild type); higher = more cleavage; co-transcriptional

# variant key, self-cleavage
records = [
    ("G25C A26C", 0.199),
    ("G29A U63C", 0.0755),
    ("U53G U60A", 0.44),
    ("C18A A44G", 0.199),
    ("C38G U55C", 0.0193),
    ("U2G G54A", 0.114),
    ("U5C C38A", 0.168),
    ("G17C U70A", 0.862),
    ("U20A G69U", 0.252),
    ("U20G U67A", 0.241),
    ("A35G A61G", 0.185),
]
